Task for the reader: assign each of the following molecules its reported TGI.
Tested on: SR leukemia
assay text: NCI tumour cell line growth inhibition, 48 h
All answers are understood in µM, so give the number only.

Query string: // query TGI value for entry "C/C(=N\NC(=S)N(C)C)c1ncc[nH]1"
Result string: 7.52

Query string: Likewise for CCN(CC)c1ccc(/C=C/C2=NN(c3cccc(S(=O)(=O)O)c3)C3(C2)C(Cl)C(=O)N3c2nc3ccccc3s2)cc1 (stereo unspecified) ?
Result string: 7.41

Query string: Likewise for "c1ccc(-c2nc(Nc3ccc(-c4nc5ccccc5[nH]4)cc3)nc(N3CCOCC3)n2)cc1" ?
Result string: 0.555

----------
Tested on: SNB-19 CNS
assay text: NCI tumour cell line growth inhibition, 48 h; in the data active = GI50 below about 0.43 µM; inactive = the rest
Your reply should match one of these outcome classes. TRUE for active, FALSE for inactive

Query string: Hey, what did the test say about "O=C(O)C(/C=C/c1ccco1)=N\Nc1nc(-c2ccc(Cl)cc2)cs1" ?
Result string: FALSE

Query string: Likewise for "Nc1cc(N)c2nc(-c3ccccc3)c(Nc3ccc(F)cc3)nc2c1" ?
Result string: FALSE

Query string: Likewise for "N#C/C(=C\c1cn(-c2ccccc2)c2ccccc12)C(=O)O" ?
Result string: FALSE

Query string: Likewise for O=C1N=C2c3c(sc4c3CCCC4)N=CN2C1N=Nc1ccc(Cl)cc1 (stereo not given) ?
Result string: FALSE

Query string: Likewise for "COc1ccc2c(c1)[nH]c(=O)c1c3cccnc3cn21" ?
Result string: TRUE

Query string: Likewise for "CN(C)c1cccc2[nH]c(-c3[nH]ncc3Nc3ccnc(N)n3)nc12" ?
Result string: TRUE

Query string: Likewise for "COc1cc2c(/C=C3/C(=O)Nc4ccccc43)c(Cl)n(Cc3ccccc3)c2cc1C" ?
Result string: FALSE

Query string: Likewise for "O=C(Nc1ccccc1Cl)c1cnc2ccc(C3CCNCC3)cn12" ?
Result string: FALSE

Query string: Likewise for "CCCCCCn1c(-c2ccc(C(=O)O/N=C(\N)c3ccc(OC)cc3)cc2)nc(-c2ccccc2)c1-c1ccccc1" ?
Result string: FALSE

Query string: Likewise for "FC(F)(F)c1ccc2c(c1)N(CCCN1CCN(C3CC3)CC1)c1ccccc1S2" ?
Result string: FALSE

----------
System: SNB-75 CNS
assay text: NCI tumour cell line growth inhibition, 48 h
Class definitions on TGI: bottom: < 10 µM; middle: ≥ 10 µM and < 50 µM; top: ≥ 50 µM

Query string: Lab note: which band did "Cc1nc2ccccc2nc1NS(=O)(=O)c1ccc(N)cc1" land in?
Result string: top

Query string: Likewise for "Clc1nc(Cl)c2ncn(C/C=C\Cn3cnc4c(Cl)nc(Cl)nc43)c2n1" ?
Result string: bottom

Query string: Likewise for "CN(C)c1cccc2[nH]c(-c3[nH]ncc3Nc3ccnc(N)n3)nc12" ?
Result string: bottom

Query string: Likewise for "CCOC(=O)c1sc(=S)c2c(C(=O)c3ccccc3)c(C(=O)c3ccccc3)sc2c1C(=O)OCC" ?
Result string: top

Query string: Likewise for "COc1ccc2c(c1)c(Cc1c(C)n(C)c3ccc(OC)cc13)c(C)n2C" ?
Result string: top

Query string: Likewise for "C/C(=N\NC(=S)N(C)C)c1ncc[nH]1" ?
Result string: top

Query string: Likewise for "O=[N+]([O-])c1ccc(Cc2nc3ccccc3s2)cc1" ?
Result string: top

Query string: Likewise for "C/C(=N\NC(N)=S)c1ccc2c(c1)OCO2" ?
Result string: top

Query string: Likewise for "CCN=C1NN=C(c2ccccc2)c2cc(Cl)ccc2N1" ?
Result string: middle

Query string: Likewise for Cc1ccccc1C(C#N)/C(=N/NC(=O)c1cc2ccccc2cc1O)C(=O)Nc1cccc(Cl)c1 (stereo not drawn) ?
Result string: middle

Query string: Likewise for "N#Cc1c(-c2ccccc2)c(C#N)c(=O)n(NS(=O)(=O)c2ccccc2)c1O" ?
Result string: top

Query string: Likewise for "CCOc1ccc(NCC(=O)N2CC(=O)Nc3ccccc32)cc1" ?
Result string: top

Query string: Likewise for "CC1=NC(=Cc2ccc(Cl)cc2)C(=O)N1n1c(-c2ccccc2)nc2ccccc2c1=O" ?
Result string: top

Query string: Likewise for COc1ncnc2c(NC3OC(CO)C(O)C3O)ncnc12 (stereo not drawn) ?
Result string: bottom

Query string: Likewise for "N#C/C(=C\c1ccc(Cl)cc1)c1nc2ccccc2c(=O)[nH]1" ?
Result string: top

Query string: Likewise for "COc1ccc2c(OC)c3ccoc3nc2c1O" ?
Result string: top

Query string: Likewise for "Oc1ccccc1C=Nc1ccc(Oc2ccc(Cl)cc2)c(Cl)c1" ?
Result string: top

Query string: Likewise for CC1C(=O)N=C2C(=CN(Cc3ccccc3)c3ccccc32)C(=O)N1C (stereo not drawn) ?
Result string: top

Query string: Likewise for "O=S(=O)(O)C(F)(F)C(F)(F)C(F)(F)C(F)(F)F" ?
Result string: top

Query string: Likewise for "CSC1=N/C(=C\c2cccs2)C(=O)N1CN1CCCCC1" ?
Result string: top

Query string: Likewise for "C1=CCN(c2ccccc2)CC1" ?
Result string: top

Query string: Likewise for COc1ccc(C2CC(=O)Nc3c2c(C)nn3-c2nc3ccccc3[nH]2)cc1 (stereo not drawn) ?
Result string: bottom

Query string: Likewise for "CNC(=O)c1cc(Oc2ccc3nc(NC(=O)Nc4ccc(Cl)c(Cl)c4)sc3c2)ccn1" ?
Result string: bottom

Query string: Likewise for "C=C1C(=O)O[C@H]2[C@H]1CC/C(COC(=O)NCCc1ccc(OC)cc1)=C\CC[C@@]1(C)O[C@@H]21" ?
Result string: middle

Query string: Likewise for "c1ccc(-c2nc(Nc3ccc(-c4nc5ccccc5[nH]4)cc3)nc(N3CCOCC3)n2)cc1" ?
Result string: bottom

Query string: Likewise for "O=C1/C(=C/c2cccc([N+](=O)[O-])c2)CCCc2ccccc21" ?
Result string: middle

Query string: Likewise for "C#Cc1cccc(NC(=O)Nc2ccc(NC(=O)CCl)cc2)c1" ?
Result string: middle

Query string: Likewise for COc1cc2c(cc1OC)-c1c(cnn1C1OC(COC(C)=O)C(OC(C)=O)C(OC(C)=O)C1OC(C)=O)CC2 (stereo not drawn) ?
Result string: top

Query string: Likewise for "COC(=O)c1c2c(c(C)[n+]([O-])c1C)C(=O)C=C(NCc1ccc(Cl)cc1)C2=O" ?
Result string: bottom

Query string: Likewise for "COc1ccc2c(c1)[nH]c(=O)c1c3cccnc3cn21" ?
Result string: top

Query string: Likewise for "COc1ccc(CSCc2cc(OC)c(OC)c(OC)c2)cc1" ?
Result string: top

Query string: Likewise for "Nc1ccc(N=Nc2ccc(/C=C/c3ccc(N=Nc4ccc(N)c5ccc(S(=O)(=O)O)cc45)cc3S(=O)(=O)O)c(S(=O)(=O)O)c2)c2cc(S(=O)(=O)O)ccc12" ?
Result string: top

Query string: Likewise for "COc1ccc(CCN2CCC(C#N)(c3ccc(OC)c(OC)c3)CC2)cc1OC" ?
Result string: top

Query string: Likewise for "CCOC(=O)c1cc2c(cc1Cl)SC(N(c1ccc(F)cc1)S(=O)(=O)c1ccc(OC)cc1)=NS2(=O)=O" ?
Result string: middle

Query string: Likewise for "COc1ccc(NC2=C(Sc3nc(C)cc(C)n3)C(=O)N(Cc3ccccc3)C2=O)cc1Cl" ?
Result string: top

Query string: Likewise for "Oc1cn(-c2ccc(Cl)cc2)nc1-c1nnc(Nc2ccccc2)o1" ?
Result string: middle

Query string: Likewise for "Cc1sc2ncnc(Sc3nc4ccccc4[nH]3)c2c1C" ?
Result string: middle

Query string: Likewise for COc1ccc(NS(=O)CCc2ccccc2)cc1 (stereo not drawn) ?
Result string: top

Query string: Likewise for COc1cc(C)cc2c1OC(c1ccccc1)CC2=O (stereo not drawn) ?
Result string: top

Query string: Likewise for O=C(CNC(=O)OCc1ccccc1)NCCCCC(NC(=O)OCc1ccccc1)C(=O)O (stereo not drawn) ?
Result string: top

Query string: Likewise for CCC(=O)N(c1ccccc1)C(C)CN1CCC(O)(c2ccccc2)CC1 (stereo not drawn) ?
Result string: top

Query string: Likewise for "COC(=O)c1nc(-c2ccc(Cl)c(Cl)c2)nc2ccccc12" ?
Result string: middle
